Recorded values, source patent US20250332170A1.

System: murine hepatitis virus (MHV)
Experiment summary: microbe, parasite or virus in culture
Format: cell-based
Conditions: Murine coronavirus; 10 μM, DBT cells
Classify as follows. Reported inhibition at 10 µM greater than or equal to 60%: 1.0. Reported inhibition at 10 µM below: 0.0.

Input smiles	Assigned label
O=C(c1ccc(F)c(F)c1Nc1ccc(I)cc1F)N1CC(O)([C@@H]2CCCCN2)C1	1.0
Cc1cccc(-c2nn3c(c2-c2ccnc4ccc(C(N)=O)cc24)CCC3)n1	0.0
Cc1ccc(C(=O)Nc2ccc(CN3CCN(C)CC3)c(C(F)(F)F)c2)cc1C#Cc1cnc2cccnn12	1.0
CO[C@H]1C[C@@H]2CC[C@@H](C)[C@@](O)(O2)C(=O)C(=O)N2CCCC[C@H]2C(=O)O[C@H]([C@H](C)C[C@@H]2CC[C@@H](OCCO)[C@H](OC)C2)CC(=O)[C@H](C)/C=C(\C)[C@@H](O)[C@@H](OC)C(=O)[C@H](C)C[C@H](C)/C=C/C=C/C=C/1C	0.0
Cc1cc(Nc2ncc(Cl)c(Nc3ccccc3S(=O)(=O)C(C)C)n2)c(OC(C)C)cc1C1CCNCC1	1.0
CC[C@H](Nc1ncnc2nc[nH]c12)c1nc2cccc(F)c2c(=O)n1-c1ccccc1	0.0
CN(C)C/C=C/C(=O)Nc1cc2c(Nc3ccc(F)c(Cl)c3)ncnc2cc1O[C@H]1CCOC1	1.0
N#CC[C@H](C1CCCC1)n1cc(-c2ncnc3[nH]ccc23)cn1	0.0
CS(=O)(=O)CCNCc1ccc(-c2ccc3ncnc(Nc4ccc(OCc5cccc(F)c5)c(Cl)c4)c3c2)o1	1.0
CNC(=O)c1cc(Oc2ccc(NC(=O)Nc3ccc(Cl)c(C(F)(F)F)c3)cc2)ccn1	1.0
CNC(=O)c1ccc(Nc2ncc(C(F)(F)F)c(NCc3nccnc3N(C)S(C)(=O)=O)n2)cc1	0.0
Cc1nc(Nc2ncc(C(=O)Nc3c(C)cccc3Cl)s2)cc(N2CCN(CCO)CC2)n1	1.0
CCS(=O)(=O)N1CCN(c2ccc(Nc3ncc(C(N)=O)c(NC4CC4)n3)cc2)CC1	1.0
CNCc1ccc(-c2[nH]c3cc(F)cc4c3c2CCNC4=O)cc1	0.0
